Assay: Release of parent compound from prodrugs in pooled human plasma
Type: in vitro ADME
Conditions: 37C, spiked with 5 uM of the prodrug, O min
Please note: Concentration of parent uM O min exactly at 4 µM is no (0). Only values below 4 µM get yes (1).

CC(C)[C@H](N)C(=O)OCC1CC(n2ccc(N)nc2=O)OC1COC(=O)[C@@H](N)C(C)C (some centres unmarked) [Compound 8] = yes (1)
CC(C)[C@H](N)C(=O)O[C@@H](C)C(=O)OCC1CC(n2ccc(N)nc2=O)OC1CO (some centres unmarked) [Compound 14] = no (0)
CCCCC(=O)OCC1CC(n2ccc(N)nc2=O)OC1COC(=O)CCCC (centres unmarked) [Compound 22] = no (0)
CC(C)[C@H](N)C(=O)OCC1CC(n2ccc(N)nc2=O)OC1CO (some centres unmarked) [Compound 5] = yes (1)

###

Recorded Concentration of parent uM 5 min for the following molecules
Experiment: Release of parent compound from prodrugs in pooled human plasma
Format: in vitro ADME
Settings: 37C, spiked with 5 uM of the prodrug, 5 min
endpoint: Concentration of parent uM 5 min

CC(C)[C@H](N)C(=O)OCC1CC(n2ccc(N)nc2=O)OC1COC(=O)[C@@H](N)C(C)C (some centres unmarked) = 0.2 µM
CCCCC(=O)OC[C@H]1C[C@H](n2ccc(N)nc2=O)O[C@@H]1CO = 4.2 µM
CC(C)[C@H](N)C(=O)O[C@@H](C)C(=O)OCC1CC(n2ccc(N)nc2=O)OC1CO (some centres unmarked) = 4.5 µM
CC(C)[C@H](N)C(=O)OCC1CC(n2ccc(N)nc2=O)OC1CO (some centres unmarked) = 0.4 µM
CCCCC(=O)OCC1CC(n2ccc(N)nc2=O)OC1COC(=O)CCCC (centres unmarked) = 4.0 µM

###

Test system: HIV-1 isolates from patient plasma samples
Format: cell-based
Settings: isolate 4 (K65R+M184V, R211S, K219E)
Recorded FC value for the following compounds
endpoint: FC value

Nc1nc(NC2CC2)c2ncn([C@H]3C=C[C@@H](CO)C3)c2n1 = > 9.0
Nc1ccn([C@@H]2CS[C@H](CO)O2)c(=O)n1 = > 200
Nc1nc(=O)n([C@@H]2CS[C@H](CO)O2)cc1F = > 40
